Reported values of pIC50 for individual entries
procedure text: Antiproliferative activity against human KB 3.1 cells after 24 hrs by MTT assay
Assay type: functional, cell-based
study conditions: KB 3-1, 24 h
The value called pIC50 is obtained by taking minus log10 of the concentration in mol/L.

CC(=O)Oc1cc(OC(C)=O)c2c(=O)c3cc(/C=N/NC4=NCCN4)ccc3oc2c1 :: 4.95
COc1cccc2c1C(=O)c1c(O)c3c(c(O)c1C2=O)C[C@@](O)(C(=O)CO)C[C@@H]3O[C@H]1C[C@H](N)[C@H](O)[C@H](C)O1 :: 8.00
CC(=O)Oc1cc(OC(C)=O)c2c(=O)c3ccc(/C=N/NC4=NCCN4)cc3oc2c1 :: 5.80

Continue with the molecule presented below.
Looking up "CC(=O)Oc1cc(OC(C)=O)c2c(=O)c3cccc(/C=N\NC4=NCCN4)c3oc2c1" , I found its pIC50 recorded as 5.17

----------
Reported values of viability at 1 µM for individual entries
procedure text: Antiproliferative activity against human KB 3.1 cells assessed as cell viability at 1 uM after 24 hrs by MTT assay
Type: functional
study conditions: KB 3-1, 24 h, read-out: Activity
// return numeric value only (unit: %, not printed)

A selection of reference data follows.
CC(=O)Oc1cc(OC(C)=O)c2c(=O)c3cccc(/C=N\Nc4ccccc4)c3oc2c1 :: 100
CC(=O)Oc1cc(OC(C)=O)c2c(=O)c3cc(/C=N/Nc4ccccc4)ccc3oc2c1 :: 100
O=c1c2cc(/C=N/NC3=NCCN3)ccc2oc2cc(O)cc(O)c12 :: 99
O=c1c2ccc(/C=N/Nc3ccccn3)cc2oc2cc(O)cc(O)c12 :: 77
CC(=O)Oc1cc(OC(C)=O)c2c(=O)c3cccc(/C=N\NC4=NCCN4)c3oc2c1 :: 95

Looking up "O=c1c2cc(/C=N/Nc3ccccc3)ccc2oc2cc(O)cc(O)c12" , I found its viability at 1 µM recorded as 100

Looking up "O=c1c2ccc(/C=N/NC3=NCCN3)cc2oc2cc(O)cc(O)c12" , I found its viability at 1 µM recorded as 93

Looking up "CC(=O)Oc1cc(OC(C)=O)c2c(=O)c3cc(/C=N/Nc4ccccn4)ccc3oc2c1" , I found its viability at 1 µM recorded as 98

Looking up "O=c1c2ccc(/C=N/Nc3ccccc3)cc2oc2cc(O)cc(O)c12" , I found its viability at 1 µM recorded as 100

Looking up "O=c1c2cccc(/C=N\Nc3ccccc3)c2oc2cc(O)cc(O)c12" , I found its viability at 1 µM recorded as 100

----------
Test system: MCF7
procedure text: Antiproliferative activity against human MCF7 cells assessed as cell viability at 1 uM after 24 hrs by MTT assay
Format: functional
study conditions: MCF7, 24 h, read-out: Activity
reported property: viability at 1 µM

O=c1c2cc(/C=N/NC3=NCCN3)ccc2oc2cc(O)cc(O)c12 :: 90%
CC(=O)Oc1cc(OC(C)=O)c2c(=O)c3ccc(/C=N/Nc4ccccc4)cc3oc2c1 :: 100%

Looking up "O=c1c2cc(/C=N/Nc3ccccc3)ccc2oc2cc(O)cc(O)c12" , I found its viability at 1 µM recorded as 100%

Looking up "CC(=O)Oc1cc(OC(C)=O)c2c(=O)c3ccc(/C=N/NC4=NCCN4)cc3oc2c1" , I found its viability at 1 µM recorded as 35%

Looking up "O=c1c2cccc(/C=N\NC3=NCCN3)c2oc2cc(O)cc(O)c12" , I found its viability at 1 µM recorded as 97%

Looking up "CC(=O)Oc1cc(OC(C)=O)c2c(=O)c3cc(/C=N/Nc4ccccn4)ccc3oc2c1" , I found its viability at 1 µM recorded as 85%

----------
Reported values of viability at 10 µM for individual entries
System: MCF7
procedure text: Antiproliferative activity against human MCF7 cells assessed as cell viability at 10 uM after 24 hrs by MTT assay
Format: functional
study conditions: MCF7, 24 h, read-out: Activity
// return numeric value only (unit: %, not printed)

O=c1c2cc(/C=N/Nc3ccccc3)ccc2oc2cc(O)cc(O)c12 :: 72
O=c1c2ccc(/C=N/NC3=NCCN3)cc2oc2cc(O)cc(O)c12 :: 70

Looking up "CC(=O)Oc1cc(OC(C)=O)c2c(=O)c3cc(/C=N/Nc4ccccn4)ccc3oc2c1" , I found its viability at 10 µM recorded as 70

Where do these numbers come from? They come from ChEMBL document CHEMBL1141662.
